System: Saccharomyces cerevisiae
Assay: protein stability index of tFT-peptide fusion (C-terminal peptide) (PSI (0-1 scale)); higher = more stable (slower turnover)
Condition summary: genetic background: cdc53-1; temperature: 37 C
Label TRUE for high-side protein stability index (at or above 0.5) and FALSE for low-side protein stability index (below it).

Residue sequence: VLRLLARRHAMV
Cat: TRUE

Residue sequence: SWELKWVYARVV
Cat: TRUE

Residue sequence: VRGLGFRWVWGW
Cat: TRUE

Residue sequence: IACISCLLCVVV
Cat: TRUE

Residue sequence: HFLLAFMLCFGQ
Cat: FALSE

Residue sequence: WCVRRVRFVMGC
Cat: FALSE

Residue sequence: SIWVGSRFRWVV
Cat: TRUE

Residue sequence: WVVLVCGFVLLG
Cat: FALSE

Residue sequence: PLLPTPLTAPPP
Cat: TRUE

Residue sequence: VSWWRGVYVVLF
Cat: TRUE

Residue sequence: SYALGNVVGGSL
Cat: TRUE

Residue sequence: DPTLLLYPLSPL
Cat: TRUE

Residue sequence: PFFVLFSLAFLF
Cat: FALSE

Residue sequence: RRIILAGLFLIS
Cat: TRUE

Residue sequence: LRFYLLTPPSPA
Cat: TRUE

Residue sequence: LLTGRFRILLVV
Cat: FALSE

Residue sequence: MLIAISASAARF
Cat: TRUE

Residue sequence: GGSLWLVHLKTI
Cat: TRUE

* * *

Overview of recorded protein stability index for various sequences
Test system: Saccharomyces cerevisiae
Assay: protein stability index of tFT-peptide fusion in deletion strain of DAS1 (PSI (0-1 scale)); higher = more stable (slower turnover)
Measured attribute: protein stability index

Residue sequence: CTSCGPKFRTNN
Result number: 0.674
//
Residue sequence: PDKRHHLIKLLN
Result number: 0.705
//
Residue sequence: FSMRWTFRKWVN
Result number: 0.634
//
Residue sequence: KKHKKGQKQKINP
Result number: 0.663
//
Residue sequence: PSMAASFWRVVG
Result number: 0.699
//
Residue sequence: VRGNVGGWRLVG
Result number: 0.667
//
Residue sequence: CTSCGYKTRTNN
Result number: 0.679
//
Residue sequence: CTSCLYKFRTNN
Result number: 0.675
//
Residue sequence: KKHKKGQKQKIH
Result number: 0.662
//
Residue sequence: KKHKKGQKQKINR
Result number: 0.657
//
Residue sequence: CTSCGYKFRTNNT
Result number: 0.689
//
Residue sequence: FSPRWTFRYWVN
Result number: 0.59
//
Residue sequence: LYVYLSCVACIN
Result number: 0.0144
//
Residue sequence: LVVYLCCVACIN
Result number: 0.0405
//
Residue sequence: KKHKKGQKQKINN
Result number: 0.659
//
Residue sequence: LKFLRQKMNHQN
Result number: 0.697
//
Residue sequence: FSMRGTFRYWVN
Result number: 0.608
//
Residue sequence: PDKRQHLIKLLN
Result number: 0.562
//
Residue sequence: LKILRQKMNVQN
Result number: 0.661
//
Residue sequence: VRGAVGGWYLVG
Result number: 0.691
//
Residue sequence: PDKRNHLISLLN
Result number: 0.614
//
Residue sequence: LKILFQKMNHQN
Result number: 0.688
//
Residue sequence: ARWRVGLWQGAS
Result number: 0.578
//
Residue sequence: HSMRWTFRYWVN
Result number: 0.586
//
Residue sequence: CTSCGIKFRTNN
Result number: 0.688
//
Residue sequence: PDKRIHLIKLLN
Result number: 0.589
//
Residue sequence: ARWRVGLVRGAS
Result number: 0.663
//
Residue sequence: KKHRKGQKQKIN
Result number: 0.678
//
Residue sequence: AEWRVGLWRGAS
Result number: 0.689
//
Residue sequence: RLIQPLPVQKLN
Result number: 0.809
//
Residue sequence: PDKRNHPIKLLN
Result number: 0.574
//
Residue sequence: PSLAASFWFVVG
Result number: 0.666
//
Residue sequence: ESMRWTFRYWVN
Result number: 0.56
//
Residue sequence: PDPRNHLIKLLN
Result number: 0.582
//
Residue sequence: HVVYLSCVACIN
Result number: 0.0397
//
Residue sequence: KKFKKGQKQKIN
Result number: 0.575
//
Residue sequence: KKHKKGQKKKIN
Result number: 0.576
//
Residue sequence: KKHKKGQKQKQN
Result number: 0.583
//
Residue sequence: LKILRAKMNHQN
Result number: 0.665
//
Residue sequence: LVVYLSCQACIN
Result number: 0.0148
//
Residue sequence: ARIRVGLWRGAS
Result number: 0.686
